Entries and their measured Chemical Stability follow.
Experiment: Chemical stability in NaCl/HCl/pepsin; further: time not given here
Format: physicochemical
Details: Test compound 5 µM in 35mM NaCl, 85 mM HCl, appr. 2000 U pepsin
Assay endpoint: Chemical Stability (%)

# Compound, Assay endpoint, Experimental value
measured = [
    ("O=c1nc(N2CCC(Cc3ccccc3)CC2)sc2c([N+](=O)[O-])cc(C(F)(F)F)cc12 [Compound 6]", "Chemical Stability", 55),
    ("O=c1nc(N2CCC(c3ccccc3F)CC2)sc2c([N+](=O)[O-])cc(C(F)(F)F)cc12 [Compound 8]", "Chemical Stability", 61),
    ("O=c1nc(N2CCC(c3cccc(F)c3)CC2)sc2c([N+](=O)[O-])cc(C(F)(F)F)cc12 [Compound 4]", "Chemical Stability", 71),
    ("O=c1nc(N2CCC(c3ccc(F)c(F)c3)CC2)sc2c([N+](=O)[O-])cc(C(F)(F)F)cc12 [Compound 5]", "Chemical Stability", 63),
    ("Cc1ccc(C2CCN(c3nc(=O)c4cc(C(F)(F)F)cc([N+](=O)[O-])c4s3)CC2)cc1 [Compound 3]", "Chemical Stability", 54),
    ("O=c1nc(N2CCC(c3ccc(Cl)cc3)CC2)sc2c([N+](=O)[O-])cc(C(F)(F)F)cc12 [Compound 2]", "Chemical Stability", 52),
    ("Cc1cccc(C2CCN(c3nc(=O)c4cc(C(F)(F)F)cc([N+](=O)[O-])c4s3)CC2)c1 [Compound 7]", "Chemical Stability", 53),
    ("O=c1nc(N2CCC(c3ccccc3)CC2)sc2c([N+](=O)[O-])cc(C(F)(F)F)cc12 [Compound 1]", "Chemical Stability", 82),
]
